Numbers sourced from the supplement of paper PMC10567573.

B1: KRT34 (parent)
chain: PTVDLNQVLNETRSQYEALVETNR

- Variants of: B1
- Assay Details: protein stability index of a GFP-peptide fusion (GPS, HEK-293T) (PSI 1-6); higher = more stable;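 further: lentivirally expressed fusions sorted by FACS into six bins by GFP to DsRed ratio, PSI derived from sequencing read proportions per bin multiplied by bin number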
- Experimental Conditions: c terminus: a fixed tail appended
Everything with protein stability index lower than 4 is label 0; everything else, including exactly 4, is label 1.

Check if protein stability index >= 4 (inclusive). Item: T12G
label 1

Then this variant: L19H
label 1

Then this variant: L5I
label 0

Then this variant: N6I
label 0

Then this variant: E21Y
label 0

Then this variant: N23V
label 0

Then this variant: Y16C
label 1

Then this variant: L9M
label 1

Then this variant: Q7A
label 0

Then this variant: D4T
label 0

Then this variant: N6D
label 0
